- system-under-test: panel of 255 wild-type kinases (Homo sapiens, UniProt P19784)
- Sequence (P19784 whole entry): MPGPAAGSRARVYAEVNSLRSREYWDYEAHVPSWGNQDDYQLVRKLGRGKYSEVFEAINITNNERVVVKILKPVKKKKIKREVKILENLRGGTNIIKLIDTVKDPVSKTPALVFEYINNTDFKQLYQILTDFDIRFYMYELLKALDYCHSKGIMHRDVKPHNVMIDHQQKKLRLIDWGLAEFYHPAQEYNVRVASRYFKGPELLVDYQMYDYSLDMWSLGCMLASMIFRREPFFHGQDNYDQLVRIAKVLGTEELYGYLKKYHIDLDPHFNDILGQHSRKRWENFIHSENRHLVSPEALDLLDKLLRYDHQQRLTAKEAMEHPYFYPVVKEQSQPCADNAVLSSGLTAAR
- measurement-notes: Kinase panel profiling at 1 µmol/L (MSA or IMAP), percentage inhibition
- Assay type: biochemical
- measurement-context: kinase CK2α2/β; 1 µmol/L single concentration; read-out: %-inhibition at 1 µmol/L, CK2α2/β
# inhibition at 1 µM listing for each entry below
experimental-endpoint: inhibition at 1 µM (%)

>>> value_observed("CCN1C(=O)N(c2c(F)c(OC)cc(OC)c2F)Cc2cnc3[nH]c(CN4CCOCC4)cc3c21")
-5
>>> value_observed("C[C@H]1Oc2cc(cnc2N)-c2c(nn(C)c2C#N)CN(C)C(=O)c2ccc(F)cc21")
-2.41
>>> value_observed("Cn1cnc2c(F)c(Nc3ccc(Br)cc3F)c(C(=O)NOCCO)cc21")
-1.89
>>> value_observed("Cc1cc(Nc2ncnc3ccc(NC4=NC(C)(C)CO4)cc23)ccc1Oc1ccn2ncnc2c1")
-2.25
>>> value_observed("COc1cc2ncnc(Nc3ccc(F)c(Cl)c3)c2cc1NC(=O)/C=C/CN1CCCCC1")
1.11
>>> value_observed("COC(=O)N[C@@H](C)CNc1nccc(-c2cn(C(C)C)nc2-c2cc(Cl)cc(NS(C)(=O)=O)c2F)n1")
-3.75
>>> value_observed("Cn1cc(-c2cc3c(N4CCN(c5ncc([C@@](C)(N)c6ccc(F)cc6)cn5)CC4)ncnn3c2)cn1")
-1.79
>>> value_observed("Cn1cnc2c(F)c(Nc3ccc(Br)cc3Cl)c(C(=O)NOCCO)cc21")
-2

* * *

- system-under-test: panel of 255 wild-type kinases (Homo sapiens)
- measurement-notes: Kinase panel profiling at 1 µmol/L (MSA or IMAP), percentage inhibition
- Assay type: biochemical
- measurement-context: NEK7; 1 µmol/L single concentration; read-out: %-inhibition, NEK7
Each record here notes measured inhibition at 1 µM.
experimental-endpoint: inhibition at 1 µM

>>> value_observed("FC(F)(F)c1ccc(CNc2ccc(Cc3c[nH]c4ncc(Cl)cc34)cn2)cn1 [pexidartinib]")
"-2.52%"
>>> value_observed("CN1CCN(c2ccc(C(=O)Nc3n[nH]c4ccc(Cc5cc(F)cc(F)c5)cc34)c(NC3CCOCC3)c2)CC1 [entrectinib]")
"-1.81%"
>>> value_observed("Cc1nc(NC(=O)N2CCC[C@H]2C(N)=O)sc1-c1ccnc(C(C)(C)C(F)(F)F)c1 [alpelisib]")
"0.399%"
>>> value_observed("CO[C@]1(C(=O)N[C@@H](C)c2ccc(-n3cc(F)cn3)nc2)CC[C@H](c2nc(C)cc(Nc3cc(C)[nH]n3)n2)CC1 [pralsetinib]")
"-3%"
>>> value_observed("CCc1nc(C(N)=O)c(Nc2ccc(N3CCC(N4CCN(C)CC4)CC3)c(OC)c2)nc1NC1CCOCC1 [gilteritinib]")
"-2%"
>>> value_observed("CCN1C(=O)N(c2c(F)c(OC)cc(OC)c2F)Cc2cnc3[nH]c(CN4CCOCC4)cc3c21 [pemigatinib]")
"3%"
>>> value_observed("C=CC(=O)N1CCC([C@@H]2CCNc3c(C(N)=O)c(-c4ccc(Oc5ccccc5)cc4)nn32)CC1 [zanubrutinib]")
"2%"

* * *

- system-under-test: panel of 255 wild-type kinases (Homo sapiens, UniProt P15735)
- Sequence (P15735 whole entry): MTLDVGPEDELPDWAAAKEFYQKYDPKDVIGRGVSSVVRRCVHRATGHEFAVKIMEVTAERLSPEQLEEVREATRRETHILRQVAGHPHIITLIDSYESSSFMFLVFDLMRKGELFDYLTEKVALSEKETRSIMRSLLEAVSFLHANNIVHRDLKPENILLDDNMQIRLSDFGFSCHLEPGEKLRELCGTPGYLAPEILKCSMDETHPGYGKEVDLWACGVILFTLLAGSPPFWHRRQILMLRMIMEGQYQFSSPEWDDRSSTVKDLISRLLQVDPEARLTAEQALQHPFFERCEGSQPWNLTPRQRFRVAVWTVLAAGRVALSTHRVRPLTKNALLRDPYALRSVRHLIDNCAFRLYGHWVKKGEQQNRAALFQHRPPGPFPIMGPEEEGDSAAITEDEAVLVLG
- measurement-notes: Kinase panel profiling at 1 µmol/L (MSA or IMAP), percentage inhibition
- Assay type: biochemical
- measurement-context: kinase PHKG2; 1 µmol/L single concentration; read-out: %-inhibition at 1 µmol/L, PHKG2
Listed here: items and their measured inhibition at 1 µM.
experimental-endpoint: inhibition at 1 µM (%)

>>> value_observed("Cn1cnc2c(F)c(Nc3ccc(Br)cc3Cl)c(C(=O)NOCCO)cc21")
3.3
>>> value_observed("COc1cc2ncnc(Nc3ccc(F)c(Cl)c3)c2cc1NC(=O)/C=C/CN1CCCCC1")
11
>>> value_observed("FC(F)(F)c1ccc(CNc2ccc(Cc3c[nH]c4ncc(Cl)cc34)cn2)cn1")
4.25
>>> value_observed("C[C@H](Nc1ncnc2nc[nH]c12)c1cc2cccc(Cl)c2c(=O)n1-c1ccccc1")
0.785
>>> value_observed("CO[C@]1(C(=O)N[C@@H](C)c2ccc(-n3cc(F)cn3)nc2)CC[C@H](c2nc(C)cc(Nc3cc(C)[nH]n3)n2)CC1")
2.24
